target: Human mGlu2 (Homo sapiens, UniProt Q14416); experiment: mGlu receptor in vitro assay, human mGlu2
Sequence (Q14416 19-872): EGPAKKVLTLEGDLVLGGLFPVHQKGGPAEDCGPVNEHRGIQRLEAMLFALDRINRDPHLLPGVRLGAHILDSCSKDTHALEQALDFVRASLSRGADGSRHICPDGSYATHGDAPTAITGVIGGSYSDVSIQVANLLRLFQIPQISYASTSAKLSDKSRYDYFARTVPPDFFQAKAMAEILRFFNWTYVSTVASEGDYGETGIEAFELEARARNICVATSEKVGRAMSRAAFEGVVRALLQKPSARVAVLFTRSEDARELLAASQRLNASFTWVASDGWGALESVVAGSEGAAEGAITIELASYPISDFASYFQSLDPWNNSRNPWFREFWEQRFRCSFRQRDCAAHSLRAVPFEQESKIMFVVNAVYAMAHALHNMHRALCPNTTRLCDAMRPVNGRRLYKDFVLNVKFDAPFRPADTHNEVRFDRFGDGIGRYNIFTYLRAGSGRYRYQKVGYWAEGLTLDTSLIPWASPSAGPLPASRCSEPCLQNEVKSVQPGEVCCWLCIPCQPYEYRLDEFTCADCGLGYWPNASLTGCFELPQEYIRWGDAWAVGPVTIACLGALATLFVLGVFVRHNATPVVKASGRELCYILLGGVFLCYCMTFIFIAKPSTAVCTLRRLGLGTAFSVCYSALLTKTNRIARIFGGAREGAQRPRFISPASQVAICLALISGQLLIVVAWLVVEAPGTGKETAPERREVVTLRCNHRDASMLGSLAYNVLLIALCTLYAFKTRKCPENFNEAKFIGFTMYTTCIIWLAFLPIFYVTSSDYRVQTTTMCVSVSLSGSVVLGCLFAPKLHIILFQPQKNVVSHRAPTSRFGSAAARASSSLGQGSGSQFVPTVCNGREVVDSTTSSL
pEC50: −log10 of the molar value.
Each item that follows carries a reported pEC50.
reported_metric: pEC50

cpd_smiles	reported_metric	result
COc1ccc(C(=O)NC2CC2)cc1-c1cnc(COc2ccc(C(=O)CC(C)(C)C)c(O)c2C)cn1	pEC50	6.72
Cc1c(OCCSCCOc2ccc(C(=O)CC(C)(C)C)c(O)c2C)cccc1C(=O)O	pEC50	7.22
Cc1c(OCc2cnc(-c3ccc(C(=O)O)cc3Cl)cn2)ccc(C(=O)CC(C)(C)C)c1O	pEC50	6.54

* * *

target: Human mGlu2 (Homo sapiens, UniProt Q14416); test: mGlu receptor in vitro assay, human mGlu2

compound	unit_of_measure	EC50
COc1c(C(=O)O)cccc1-c1noc(COc2ccc(C(=O)CC(C)(C)C)c(O)c2C)n1 [compound 158]	nM	53
Cc1c(OCc2cnc(-c3ccc(C(=O)O)s3)cn2)ccc(C(=O)CC(C)(C)C)c1O [compound 141]	nM	547
COc1ccc(C(=O)O)cc1OCCNCCOc1ccc(C(=O)CC(C)(C)C)c(O)c1C [Example 26]	nM	156
COc1ccc(C(=O)O)cc1C#CCCCOc1ccc(C(=O)CC(C)(C)C)c(O)c1C [Example 2]	nM	144
Cc1c(OCc2nc(-c3cccc(C(=O)O)c3)no2)ccc(C(=O)CC(C)(C)C)c1O [compound 133]	nM	74
COc1ccc(C(=O)O)cc1OCCCCCOc1ccc(C(=O)CC(C)(C)C)c(O)c1C [Example 11]	nM	7
COc1ccc(C(=O)O)cc1-c1noc(COc2ccc(C(=O)CC(C)(C)C)c(O)c2C)n1 [compound 156]	nM	78
Cc1c(OCc2cnc(-c3ccc(F)c(C(=O)O)c3)cn2)ccc(C(=O)CC(C)(C)C)c1O [compound 115]	nM	355
